System: heart rate response to isoproterenol (β-adrenergic)
Assay: Cardiovascular experiments in dogs: blockade of isoproterenol heart rate response
Format: in vivo, mongrel dogs
Details: 1 mg/kg i.v.
Where a name gives a salt, the structure may show the parent alone.
property-label: Duration, Mean (time at which response to isoproterenol had returned to control levels)

compound="CCOC(=O)Cc1ccc(OCC(O)CNC(C)C)cc1 (stereo not shown)" value="~ 50 min"
compound="CC(C)NCC(O)COc1ccc(CC(=O)OC2C(C)CCCC2C)cc1 (stereo not shown) [Compound 16, oxalate hydrate]" value="~ 65 min"
compound="CC(C)NCC(O)COc1ccc(CC(=O)OC2CCCCC2)cc1 (stereo not shown) [Compound 15, hydrate]" value="~ 85 min"
compound="CC(C)NCC(O)COc1ccc(CC(=O)OC2CC(C)(C)CC(C)(C)C2)cc1 (stereo not shown) [Compound 17, hydrate]" value="~ 70 min"
